Where do these numbers come from? They come from paper PMC12040169.

Measurement Protocol: in vitro
Experimental Conditions: human, hela cells, % viability
Hi! Could you tag entries with viability at 28.5 h, 10 µM below 90% as True, and those at or above as False? Much appreciated.

Worked cases, answers included:
# Molecule, Assigned Class
data = [
    ("O=C(NC1CC2(CCCC2)Oc2ccccc21)C1CCOC1 (stereo not shown)", "True"),
    ("Cc1ccc(S(=O)(=O)NCCn2nc(C)c(C)c2C)s1", "True"),
    ("COc1ccc2[nH]c3c(c2c1)CN(C(=O)CCC1CCCO1)CC3 (stereo not shown)", "False"),
    ("Cn1c(SCc2cccc3ccccc23)nnc1-c1ccc(NC(=O)/C=C/c2ccccc2)cc1", "False"),
]

[in] Lab note: confirm whether the reported viability at 28.5 h, 10 µM for this molecule is below 90%, equality not counting. molecule: CC1CCCN(CC(O)c2ccc3c(c2)CCCN3C(=O)C2CC2)C1 (stereo not shown)
[out] False

[in] Also need COc1ccccc1CN(CC(C)(C)CN)C(=O)Nc1ccc(C)c([N+](=O)[O-])c1 [CBK026816C] , thanks.
[out] False

[in] Also need "O=C(CSc1nsc(SCC(=O)c2ccccc2)n1)c1ccccc1" , thanks.
[out] False

[in] Also need "O=C(c1n[nH]c2ccccc12)N1CCc2ccccc2C1" , thanks.
[out] False

[in] Also need "O=C(C1CC1)N1CCC[C@H]1Cn1nc(-c2cccs2)ccc1=O" , thanks.
[out] True

[in] Also need Nc1ncc(-c2ccc(Cl)cc2)c(C2CCCN(C(=O)C3CCCC3)C2)n1 (stereo not shown) , thanks.
[out] False

[in] Also need CC(CCN(CCN)C(=O)N1CCC(Cn2cncn2)(C2CCCCC2)CC1)c1ccccc1 (stereo not shown) [CBK002130C] , thanks.
[out] False

[in] Also need C[C@H](NC(=O)C1CC(=O)N(c2ccc(F)cc2)C1)C(=O)N1CCC(C(=O)O)CC1 (stereo partly shown) , thanks.
[out] True

[in] Also need Cc1cc(NC(=O)NC2CCOc3ccccc32)no1 (stereo not shown) , thanks.
[out] False

[in] Also need CC1(C)OC(NC2CC3CCC2C3)=NC1=O (stereo not shown) , thanks.
[out] True

[in] Also need "FC1(F)Oc2ccc(Nc3cncc(-c4cccs4)n3)cc2OC1(F)F" , thanks.
[out] False

[in] Also need COc1ccc2c(c1)C(C(C(=O)O)C(=O)O)c1ccccc1O2 (stereo not shown) , thanks.
[out] False

---

Below: a set of entries, each annotated with reported viability at 28.5 h, 10 µM.
Measurement Protocol: in vitro
Experimental Conditions: human, hela cells, % viability
Write it as a number; the unit % goes unstated.

# Compound, viability at 28.5 h, 10 µM (%)
measured = [
    ("CCN1CCN(c2ncnc3sc(C)c(C)c23)CC1 [CBK288101]", 98.6),
    ("Cc1cc(Br)cc(C)c1OCC(=O)NNC(=O)Cc1cccc2ccccc12 [CBK267151]", 95.2),
    ("COc1cccc(C(=O)C2=C(O)C(=O)N(CCCn3ccnc3)C2c2cccc(F)c2)c1 (stereo not drawn) [CBK266419]", 107),
]

[in] Quick check: viability at 28.5 h, 10 µM of CN(C)c1ccc(/C=N/NC(=O)CCn2c3ccccc3c3cc(I)ccc32)cc1 [CBK262902] ?
[out] 84.5

[in] Also need CCc1ccc(C(O)CNC2CCN(CCOC)CC2)cc1 (stereo not drawn) [CBK304259] , thanks.
[out] 104
